From: patent US5399566A

Molecular target: contraction response to angiotensin II at the isolated thoracic aorta of rabbit (Oryctolagus cuniculus, UniProt P34976)
Construct: A strip of thoracic aorta of a male rabbit (2.5-3.0 kg) was prepared by the usual method; from tissue; host or cells: rabbit thoracic aorta strip
Sequence (P34976 whole entry): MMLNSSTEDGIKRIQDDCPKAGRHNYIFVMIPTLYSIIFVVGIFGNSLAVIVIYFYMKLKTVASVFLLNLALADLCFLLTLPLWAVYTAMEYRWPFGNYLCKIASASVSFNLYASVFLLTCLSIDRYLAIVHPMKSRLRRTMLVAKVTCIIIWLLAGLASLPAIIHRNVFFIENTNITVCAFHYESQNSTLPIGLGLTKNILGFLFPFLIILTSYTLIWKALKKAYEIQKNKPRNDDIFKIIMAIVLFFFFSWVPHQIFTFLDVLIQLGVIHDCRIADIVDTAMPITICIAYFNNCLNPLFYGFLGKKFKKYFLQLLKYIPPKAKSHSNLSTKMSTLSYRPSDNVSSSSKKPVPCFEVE
Experiment: In vitro angiotensin II antagonism, isolated rabbit thoracic aorta (Schild pA2)
Format: cell-based
Conditions: Schild plot
measurement-name: Kb
I'd appreciate it if you wrote the number followed by its unit.

# structure-smiles, reported
records = [
    ("CCOC(=O)c1c(OCc2ccc(-c3ccccc3-c3nnn[nH]3)cc2)cc(CC)nc1C", "1 nM"),
    ("CCc1nc(C)cc(OCc2ccc(-c3ccccc3-c3nnn[nH]3)cc2)c1C(=O)OC", "0.617 nM"),
    ("CCOc1c(OCc2ccc(-c3ccccc3C(=O)O)cc2)cc(C)nc1C", "28.2 nM"),
    ("Cc1cc(OCc2ccc(-c3ccccc3-c3nnn[nH]3)cc2)c(OCc2ccccc2)c(C)n1", "6.76 nM"),
    ("CCc1cc(OCc2ccc(-c3ccccc3-c3nnn[nH]3)cc2)cc(CC)n1", "5.25 nM"),
]

compound `CCc1nc(C)cc(OCc2ccc(-c3ccccc3-c3nnn[nH]3)cc2)c1OC` , Kb observed: 0.912 nM

compound `Cc1cc(OCc2ccc(-c3ccccc3-c3nn[nH]n3)cc2)c(CO)c(C)n1` , Kb observed: 12.3 nM

compound `CCOc1c(OCc2ccc(-c3ccccc3-c3nnn[nH]3)cc2)cc(C)nc1C` , Kb observed: 1.74 nM
